Each item that follows carries a reported Ki.
molecular target: serotonin transporter (Rattus norvegicus, UniProt P31652); construct: from tissue; host or cells: rat cerebral cortex homogenate; test: inhibition of [3H]-citalopram binding to rat cortical homogenates (competitive radioligand binding assay); conditions: Table 1; rat cortical tissue; read-out: [3H]-Citalopram Binding Ki
Sequence (P31652 whole entry): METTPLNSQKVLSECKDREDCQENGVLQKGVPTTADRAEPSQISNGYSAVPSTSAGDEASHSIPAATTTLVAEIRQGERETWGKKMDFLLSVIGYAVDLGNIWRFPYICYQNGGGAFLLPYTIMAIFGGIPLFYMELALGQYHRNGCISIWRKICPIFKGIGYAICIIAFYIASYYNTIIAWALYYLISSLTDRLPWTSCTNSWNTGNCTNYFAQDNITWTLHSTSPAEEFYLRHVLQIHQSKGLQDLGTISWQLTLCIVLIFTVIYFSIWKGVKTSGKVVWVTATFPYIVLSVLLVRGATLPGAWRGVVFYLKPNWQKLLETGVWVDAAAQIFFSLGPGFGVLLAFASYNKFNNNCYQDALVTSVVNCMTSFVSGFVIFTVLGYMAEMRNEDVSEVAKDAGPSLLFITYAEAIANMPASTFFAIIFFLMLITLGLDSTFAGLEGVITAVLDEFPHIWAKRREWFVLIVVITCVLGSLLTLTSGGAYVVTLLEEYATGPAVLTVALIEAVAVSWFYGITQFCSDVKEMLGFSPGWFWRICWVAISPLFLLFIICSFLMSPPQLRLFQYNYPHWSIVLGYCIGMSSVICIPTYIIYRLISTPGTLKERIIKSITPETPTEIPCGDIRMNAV
Where a name gives a salt, the structure may show the parent alone.
Quantity Measured: Ki (nM)

INSERT INTO assay_data (compound, quantity_measured, u, value_relation_sign, experimental_result) VALUES
  ('Brc1c(COC2CCNCC2)cc(I)c2ccccc12 [Compound 6, hydrochloride]', 'Ki', 'nM', '=', 16.7),
  ('Brc1c(COC2CCNCC2)ccc2cc(I)ccc12 [Compound 7, hydrochloride]', 'Ki', 'nM', '=', 58.4),
  ('Brc1c(COC2CCNCC2)ccc2ccccc12.Cl [Compound 1, hydrochloride]', 'Ki', 'nM', '=', 0.014),
  ('Brc1c(COC2CCNCC2)c(I)cc2ccccc12 [Compound 5, hydrochloride]', 'Ki', 'nM', '=', 36.9),
  ('Cl.Fc1c(COC2CCNCC2)ccc2ccccc12 [Compound 3, hydrochloride]', 'Ki', 'nM', '=', 3.37),
  ('Cl.Clc1c(COC2CCNCC2)ccc2ccccc12 [Compound 4, hydrochloride]', 'Ki', 'nM', '=', 1.24),
  ('c1ccc2nc(COC3CCNCC3)ccc2c1 [Compound 70, hydrochloride]', 'Ki', 'nM', '>', 100);

====

target: 5HT3 receptor; assay: inhibition of [3H] GR65630 binding to serotonergic synaptosomal preparation; conditions: serotonergic synaptosomal preparation
pIC50: −log10 of the molar value. Structures can show the parent of a compound that is named as a salt.
Quantity Measured: pIC50

INSERT INTO results (compound, experimental_result) VALUES
  ('c1ccc2nc(COC3CCNCC3)ccc2c1 [Compound 70, hydrochloride]', 8.13);

====

Each item that follows carries a reported IC50.
biological target: serotonin transporter (Rattus norvegicus, UniProt P31652); construct: from tissue; host or cells: rat cerebral cortex homogenate; assay: inhibition of [3H]-citalopram binding to rat cortical homogenates (competitive radioligand binding assay); settings: concentration needed to achieve 50% inhibition of citalopram binding (IC50); rat cortical homogenates
Counter-ions that a name gives are not always drawn.
Quantity Measured: IC50 (nM)

INSERT INTO results (compound, experimental_result) VALUES
  ('Cl.Fc1c(COC2CCNCC2)ccc2ccccc12 [Compound 3, hydrochloride]', 3.37),
  ('Cl.Clc1c(COC2CCNCC2)ccc2ccccc12 [Compound 4, hydrochloride]', 1.24),
  ('Brc1c(COC2CCNCC2)ccc2ccccc12.Cl [Compound 1, hydrochloride]', 0.015),
  ('Ic1c(COC2CCNCC2)ccc2ccccc12 [Compound 2, hydrochloride]', 4.1);

====

molecular target: serotonin transporter (Rattus norvegicus, UniProt P31652); construct: from tissue; host or cells: rat cerebral cortex homogenate; experiment: inhibition of [3H]-citalopram binding to rat cortical homogenates (competitive radioligand binding assay); details: [3H]-Citalopram Binding IC50, Table 1; rat cortical tissue
Structures can show the parent of a compound that is named as a salt.
Quantity Measured: IC50 (nM)

INSERT INTO results (molecule, target_system, quantity_measured, u, experimental_result) VALUES
  ('Ic1c(COC2CCNCC2)ccc2ccccc12 [Compound 2, hydrochloride]', 'serotonin transporter (Rattus norvegicus, UniProt P31652)', 'IC50', 'nM', 5.9);

====

target: serotonin transporter (Rattus norvegicus, UniProt P31652); construct: from tissue; host or cells: rat cerebral cortex homogenate; assay: inhibition of [3H]-citalopram binding to rat cortical homogenates (competitive radioligand binding assay)
Counter-ions that a name gives are not always drawn.
Quantity Measured: Ki (nM)

INSERT INTO assay_data (molecule, target_system, experimental_result) VALUES
  ('Ic1c(COC2CCNCC2)ccc2ccccc12 [Compound 2, hydrochloride]', 'serotonin transporter (Rattus norvegicus, UniProt P31652)', 4.13);

====

target: 5HT3 receptor; test: inhibition of [3H] GR65630 binding to serotonergic synaptosomal preparation; settings: serotonergic synaptosomal preparation
Structures can show the parent of a compound that is named as a salt.
Quantity Measured: Ki (nM)

INSERT INTO assay_data (molecule, target_system, u, experimental_result) VALUES
  ('c1ccc2nc(COC3CCNCC3)ccc2c1 [Compound 70, hydrochloride]', '5HT3 receptor', 'nM', 3.24);

====

molecular target: serotonin transporter (Rattus norvegicus); construct: from tissue; host or cells: rat cerebral cortex homogenate; assay: inhibition of [3H]-citalopram binding to rat cortical homogenates (competitive radioligand binding assay); settings: Table 1; rat cortical tissue; read-out: [3H]-Citalopram Binding IC50
Counter-ions that a name gives are not always drawn.
Quantity Measured: IC50

INSERT INTO results (compound, target_system, quantity_measured, experimental_result) VALUES
  ('Cl.Clc1c(COC2CCNCC2)ccc2ccccc12 [Compound 4, hydrochloride]', 'serotonin transporter (Rattus norvegicus)', 'IC50', '2.12 nM'),
  ('Brc1c(COC2CCNCC2)ccc2ccccc12.Cl [Compound 1, hydrochloride]', 'serotonin transporter (Rattus norvegicus)', 'IC50', '0.02 nM'),
  ('Cl.Fc1c(COC2CCNCC2)ccc2ccccc12 [Compound 3, hydrochloride]', 'serotonin transporter (Rattus norvegicus)', 'IC50', '5.74 nM'),
  ('Brc1c(COC2CCNCC2)c(I)cc2ccccc12 [Compound 5, hydrochloride]', 'serotonin transporter (Rattus norvegicus)', 'IC50', '54.6 nM'),
  ('c1ccc2nc(COC3CCNCC3)ccc2c1 [Compound 70, hydrochloride]', 'serotonin transporter (Rattus norvegicus)', 'IC50', '> 100 nM'),
  ('Brc1c(COC2CCNCC2)ccc2cc(I)ccc12 [Compound 7, hydrochloride]', 'serotonin transporter (Rattus norvegicus)', 'IC50', '60 nM'),
  ('Brc1c(COC2CCNCC2)cc(I)c2ccccc12 [Compound 6, hydrochloride]', 'serotonin transporter (Rattus norvegicus)', 'IC50', '24.6 nM');
